experimental-protocol: Cytotoxicity against human TZM cells expressing GFP assessed as reduction in cell viability after 72 hrs by XTT assay
Assay type: cell-based
quantity-measured: CC50 at 72 h

The following molecules have reported results that may help.
smiles_notation=CN(C(=O)[C@H](Cc1ccccc1)NC(=O)Cn1cnc2c1c(=O)n(C)c(=O)n2C)c1cccc(F)c1 measurement="> 50 µM"
smiles_notation=CN(C(=O)[C@H](Cc1ccccc1)NC(=O)Cc1c[nH]c2ccc(O)cc12)c1cccc(F)c1 measurement="47 µM"
smiles_notation=COc1ccc2[nH]cc(CC(=O)N[C@@H](Cc3ccccc3)C(=O)N(C)c3ccc(F)cc3)c2c1 measurement="> 50 µM"

Proceed to the following item.
// CC50 at 72 h lookup, molecule = `COc1ccc2[nH]cc(CC(=O)N[C@@H](Cc3ccccc3)C(=O)N(C)c3ccc(Cl)cc3)c2c1` , result: > 50 µM
